Target Or Test System: Kappa-type opioid receptor (Homo sapiens, UniProt P41145); also: assay procedure not described here
Sequence (P41145 whole entry): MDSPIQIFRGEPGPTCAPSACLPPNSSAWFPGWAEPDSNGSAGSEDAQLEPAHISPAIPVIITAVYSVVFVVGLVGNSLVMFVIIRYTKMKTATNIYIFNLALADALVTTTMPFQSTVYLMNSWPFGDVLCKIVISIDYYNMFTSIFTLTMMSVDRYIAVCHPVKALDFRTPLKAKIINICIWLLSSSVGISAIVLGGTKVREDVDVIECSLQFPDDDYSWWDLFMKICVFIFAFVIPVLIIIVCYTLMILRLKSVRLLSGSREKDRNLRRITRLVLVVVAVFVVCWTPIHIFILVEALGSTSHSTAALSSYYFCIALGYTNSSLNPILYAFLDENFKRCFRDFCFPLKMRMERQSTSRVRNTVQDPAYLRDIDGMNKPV
Readout Name: AC50

**Q:** # returns recorded AC50 (system: Kappa-type opioid receptor (Homo sapiens, UniProt P41145)) for COC1=C(OC)C(=O)C(C/C=C(\C)CC/C=C(\C)CC/C=C(\C)CC/C=C(\C)CC/C=C(\C)CC/C=C(\C)CC/C=C(\C)CC/C=C(\C)CC/C=C(\C)CCC=C(C)C)=C(C)C1=O; also: assay procedure not described here
**A:** > 30 µM

**Q:** Next compound: Nc1nc(NC2CC2)c2ncn([C@H]3C=C[C@@H](CO)C3)c2n1
**A:** > 30 µM

**Q:** Next compound: C[C@]12CC[C@H]3[C@@H](CCC4=CC(=O)CC[C@@]43C)[C@@H]1CC[C@@H]2O
**A:** > 10 µM

* * *

Entries with their measured AC50, system Glutamate receptor ionotropic, NMDA 1 (Rattus norvegicus, UniProt P35439):

**Q:** Quick one: AC50 for C[C@]12CC[C@H]3[C@@H](CCC4=CC(=O)CC[C@@]43C)[C@@H]1CC[C@@H]2O ?
**A:** > 10 µM

**Q:** Next molecule: Cc1cc(C(C)(C)C)c(O)c(C)c1CC1=NCCN1
**A:** > 30 µM

**Q:** Next molecule: Nc1nc(Cl)nc2c1ncn2[C@H]1C[C@H](O)[C@@H](CO)O1
**A:** > 30 µM

**Q:** Next molecule: O=[N+]([O-])c1cn2c(n1)OC[C@@H](OCc1ccc(OC(F)(F)F)cc1)C2
**A:** > 10 µM

**Q:** Next molecule: Brc1c(NC2=NCCN2)ccc2nccnc12
**A:** > 30 µM

**Q:** Next molecule: CS(=O)(=O)c1ccc(C2=C(c3ccccc3)C(=O)OC2)cc1
**A:** > 10 µM

**Q:** Next molecule: COc1ccc(C(=O)Nc2ccccc2CCC2CCCCN2C)cc1 (stereo not drawn) [ENCAINIDE]
**A:** > 10 µM

**Q:** Next molecule: CC(C(=O)O)c1ccc(N2Cc3ccccc3C2=O)cc1 (stereo not drawn)
**A:** > 30 µM

**Q:** Next molecule: CCCC1O[C@@H]2C[C@H]3[C@@H]4CCC5=CC(=O)C=C[C@]5(C)[C@H]4[C@@H](O)C[C@]3(C)[C@]2(C(=O)CO)O1 (stereo partly drawn) [BUDESONIDE]
**A:** > 10 µM

**Q:** Next molecule: C[C@]12CCC(=O)C=C1CC[C@@H]1[C@@H]2[C@@H](O)C[C@@]2(C)[C@H]1CC[C@]2(O)C(=O)CO [HYDROCORTISONE]
**A:** > 10 µM

**Q:** Next molecule: OC(CNCC(O)C1CCc2cc(F)ccc2O1)C1CCc2cc(F)ccc2O1 (stereo not drawn)
**A:** > 30 µM

**Q:** Next molecule: CC(CC1c2ccccc2CCc2ccccc21)CN(C)C (stereo not drawn)
**A:** > 30 µM

**Q:** Next molecule: CN1[C@@H]2CC[C@H]1C[C@@H](OC(c1ccccc1)c1ccccc1)C2
**A:** > 10 µM

* * *

Would you mind telling me the reported AC50 of each entry?
Target Or Test System: Muscarinic acetylcholine receptor M1 (Homo sapiens); also: assay procedure not described here
Sequence (P11229 whole entry): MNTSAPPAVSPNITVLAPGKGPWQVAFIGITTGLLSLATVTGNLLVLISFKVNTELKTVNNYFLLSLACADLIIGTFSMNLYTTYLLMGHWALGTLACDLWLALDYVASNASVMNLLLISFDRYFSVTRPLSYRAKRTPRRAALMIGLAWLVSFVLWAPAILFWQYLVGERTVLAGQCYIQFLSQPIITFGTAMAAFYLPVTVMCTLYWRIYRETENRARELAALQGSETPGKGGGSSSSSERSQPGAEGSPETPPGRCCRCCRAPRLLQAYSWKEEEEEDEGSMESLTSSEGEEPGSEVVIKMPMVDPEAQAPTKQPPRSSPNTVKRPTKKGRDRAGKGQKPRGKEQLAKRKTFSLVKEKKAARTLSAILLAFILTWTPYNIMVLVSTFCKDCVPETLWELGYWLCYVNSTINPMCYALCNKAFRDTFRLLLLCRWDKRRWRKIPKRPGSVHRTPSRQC
Format: functional

**Q:** Quick one: AC50 for CN1C(C(=O)Nc2ccccn2)=C(O)c2sc(Cl)cc2S1(=O)=O ?
**A:** > 10 µM

**Q:** Next compound: COc1ccccc1OCC(O)CN1CCN(CC(=O)Nc2c(C)cccc2C)CC1 (stereo unspecified)
**A:** > 30 µM

**Q:** Next compound: CC(C)C(=O)c1c(C(C)C)nn2ccccc12
**A:** > 30 µM

**Q:** Next compound: COC(=O)C1=C(C)NC(C)=C(C(=O)OC(C)(C)CN(C)CCC(c2ccccc2)c2ccccc2)C1c1cccc([N+](=O)[O-])c1 (stereo unspecified)
**A:** > 30 µM

**Q:** Next compound: CCOC(=O)[C@H](CCc1ccccc1)N[C@@H](C)C(=O)N1C(=O)N(C)C[C@H]1C(=O)O
**A:** > 30 µM

**Q:** Next compound: O=[N+]([O-])c1cn2c(n1)OC[C@@H](OCc1ccc(OC(F)(F)F)cc1)C2
**A:** > 10 µM

* * *

Target Or Test System: Alpha-2C adrenergic receptor (Homo sapiens); also: assay procedure not described here
Sequence (P18825 whole entry): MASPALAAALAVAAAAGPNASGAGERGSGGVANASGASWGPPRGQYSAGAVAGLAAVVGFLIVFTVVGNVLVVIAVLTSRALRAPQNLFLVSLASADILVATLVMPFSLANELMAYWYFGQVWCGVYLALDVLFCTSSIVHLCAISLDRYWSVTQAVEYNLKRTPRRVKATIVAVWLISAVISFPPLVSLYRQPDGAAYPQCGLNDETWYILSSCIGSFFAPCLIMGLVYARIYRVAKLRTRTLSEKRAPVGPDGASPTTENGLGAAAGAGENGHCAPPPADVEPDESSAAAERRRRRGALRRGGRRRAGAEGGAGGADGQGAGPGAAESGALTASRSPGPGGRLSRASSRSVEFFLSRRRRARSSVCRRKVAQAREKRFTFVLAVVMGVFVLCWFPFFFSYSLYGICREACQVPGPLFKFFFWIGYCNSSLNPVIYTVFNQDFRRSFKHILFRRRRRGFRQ
Type: functional
Would you mind telling me the reported AC50 of each entry?

**Q:** Quick one: AC50 for COc1ccccc1OCCNCC(O)c1ccc(C)c(S(N)(=O)=O)c1 (centres undefined) [AMOSULALOL] ?
**A:** 2.3 µM

**Q:** Next molecule: Cc1nc([N+](=O)[O-])cn1-c1ccc([N+](=O)[O-])cc1 [NITREFAZOLE]
**A:** > 30 µM

**Q:** Next molecule: C[C@](N)(Cc1ccc(O)c(O)c1)C(=O)O [METHYLDOPA]
**A:** > 10 µM

**Q:** Next molecule: C=CCC1(CC(C)C)C(=O)NC(=O)NC1=O [BUTALBITAL]
**A:** > 30 µM

* * *

Target Or Test System: Sodium-dependent noradrenaline transporter (Homo sapiens); also: assay procedure not described here
Sequence (P23975 whole entry): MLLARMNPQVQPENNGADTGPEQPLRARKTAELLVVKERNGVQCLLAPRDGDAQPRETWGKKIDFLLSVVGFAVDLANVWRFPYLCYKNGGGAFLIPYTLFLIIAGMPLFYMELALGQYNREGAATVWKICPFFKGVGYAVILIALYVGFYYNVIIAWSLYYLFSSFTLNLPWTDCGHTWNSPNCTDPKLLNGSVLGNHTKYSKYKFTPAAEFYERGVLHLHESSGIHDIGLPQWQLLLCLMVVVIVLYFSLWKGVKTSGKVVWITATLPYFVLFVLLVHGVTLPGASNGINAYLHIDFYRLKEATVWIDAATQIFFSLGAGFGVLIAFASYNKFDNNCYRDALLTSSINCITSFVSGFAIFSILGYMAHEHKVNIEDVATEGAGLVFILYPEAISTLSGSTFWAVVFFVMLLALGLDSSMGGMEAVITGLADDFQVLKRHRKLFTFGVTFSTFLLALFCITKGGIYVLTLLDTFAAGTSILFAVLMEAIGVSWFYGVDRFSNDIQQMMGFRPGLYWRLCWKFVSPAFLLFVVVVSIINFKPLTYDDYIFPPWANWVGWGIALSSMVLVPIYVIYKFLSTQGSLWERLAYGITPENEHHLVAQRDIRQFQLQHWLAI
Would you mind telling me the reported AC50 of each entry?

**Q:** Quick one: AC50 for Cc1cc(C#N)cc(C)c1Oc1nc(Nc2ccc(C#N)cc2)nc(N)c1Br ?
**A:** 5.88 µM

**Q:** Next molecule: NC(=O)C[C@H](N)C(=O)O
**A:** > 30 µM

**Q:** Next molecule: Cc1cc(NS(=O)(=O)c2ccc(N)cc2)nc(C)n1
**A:** > 30 µM

**Q:** Next molecule: O=C(CCNNC(=O)c1ccncc1)NCc1ccccc1 [NIALAMIDE]
**A:** > 30 µM

**Q:** Next molecule: C=C[C@H]1C[N@@]2CC[C@H]1C[C@H]2[C@H](O)c1ccnc2ccc(OC)cc12
**A:** > 30 µM

* * *

Target Or Test System: Histamine H2 receptor (Homo sapiens); also: assay procedure not described here
Sequence (P25021 whole entry): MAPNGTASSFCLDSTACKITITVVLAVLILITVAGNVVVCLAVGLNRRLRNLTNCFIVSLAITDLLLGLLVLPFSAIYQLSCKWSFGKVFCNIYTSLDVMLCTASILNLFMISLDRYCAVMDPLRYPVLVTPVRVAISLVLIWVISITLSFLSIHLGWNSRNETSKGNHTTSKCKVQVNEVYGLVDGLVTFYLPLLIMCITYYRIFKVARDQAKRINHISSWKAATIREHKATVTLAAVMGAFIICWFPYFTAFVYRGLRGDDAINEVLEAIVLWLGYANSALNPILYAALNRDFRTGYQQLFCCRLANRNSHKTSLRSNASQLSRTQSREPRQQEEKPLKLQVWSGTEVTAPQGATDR
Type: functional, cell-based
Would you mind telling me the reported AC50 of each entry?

**Q:** Quick one: AC50 for Cc1c(C(=O)NN2CCCCC2)nn(-c2ccc(Cl)cc2Cl)c1-c1ccc(Cl)cc1 ?
**A:** > 10 µM

**Q:** Next compound: Cc1oc(=O)oc1CN1CCN(c2cc3c(cc2F)c(=O)c(C(=O)O)c2n3C(C)S2)CC1 (stereo not drawn)
**A:** > 30 µM

**Q:** Next compound: CC(=O)O[C@H]1CC[C@@]2(C)C(=CC[C@@H]3[C@@H]2CC[C@]2(C)C(c4cccnc4)=CC[C@@H]32)C1 [ABIRATERONE ACETATE]
**A:** > 30 µM

* * *

Target Or Test System: Motilin receptor (Homo sapiens); also: assay procedure not described here
Sequence (O43193 whole entry): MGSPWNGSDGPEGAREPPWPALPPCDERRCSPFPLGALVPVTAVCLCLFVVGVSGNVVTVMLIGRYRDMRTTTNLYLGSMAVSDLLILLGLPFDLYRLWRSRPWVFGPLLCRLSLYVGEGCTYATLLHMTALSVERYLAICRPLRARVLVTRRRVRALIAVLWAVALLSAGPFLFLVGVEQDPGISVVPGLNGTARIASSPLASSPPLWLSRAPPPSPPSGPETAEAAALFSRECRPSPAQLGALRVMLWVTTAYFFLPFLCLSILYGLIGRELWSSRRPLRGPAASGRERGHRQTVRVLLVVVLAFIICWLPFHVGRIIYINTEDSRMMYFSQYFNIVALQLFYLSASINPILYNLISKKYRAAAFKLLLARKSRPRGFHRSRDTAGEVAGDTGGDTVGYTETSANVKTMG
Would you mind telling me the reported AC50 of each entry?

**Q:** # returns recorded AC50 (system: Motilin receptor (Homo sapiens)) for CC(=O)OCC(=O)[C@@]12N=C(C)O[C@@H]1C[C@H]1[C@@H]3CCC4=CC(=O)C=C[C@]4(C)[C@H]3[C@@H](O)C[C@@]12C [DEFLAZACORT]; also: assay procedure not described here
**A:** > 30 µM

**Q:** Next molecule: CCC(CC)(CC(=O)Nc1cccc(/C=C/c2nc(C3CCC3)cs2)c1)C(=O)O
**A:** > 30 µM

**Q:** Next molecule: COc1ccc(-c2ccc3cc(C(=O)O)ccc3c2)cc1C12CC3CC(CC(C3)C1)C2
**A:** > 30 µM

**Q:** Next molecule: CC[C@H]1CN2CCc3cc(OC)c(OC)cc3[C@@H]2C[C@@H]1C[C@H]1NCCc2cc(OC)c(OC)cc21 [EMETINE]
**A:** > 30 µM

**Q:** Next molecule: CCCCc1ncc(/C=C(\Cc2cccs2)C(=O)O)n1Cc1ccc(C(=O)O)cc1 [EPROSARTAN]
**A:** > 10 µM

**Q:** Next molecule: CCc1c(Cl)c(O)c(Cl)c(O)c1C(=O)O[C@H]1[C@H](O)[C@H](OC)[C@H](OC/C2=C\C=C\C[C@H](O)/C(C)=C/[C@H](CC)[C@@H](O[C@@H]3OC(C)(C)[C@@H](OC(=O)C(C)C)[C@H](O)[C@@H]3O)/C(C)=C/C(C)=C/C[C@@H]([C@@H](C)O)OC2=O)O[C@@H]1C [FIDAXOMICIN]
**A:** > 10 µM

**Q:** Next molecule: O=C(O)C[C@H](O)C[C@H](O)/C=C/c1c(C2CC2)nc2ccccc2c1-c1ccc(F)cc1 [PITAVASTATIN]
**A:** > 10 µM

**Q:** Next molecule: CCCCN1C[C@H](O)[C@@H](O)[C@H](O)[C@H]1CO
**A:** > 30 µM

**Q:** Next molecule: CC(=O)Nc1ccc(O)cc1 [ACETAMINOPHEN]
**A:** > 30 µM

**Q:** Next molecule: CCCCCCOc1ccccc1C(N)=O [EXALAMIDE]
**A:** > 30 µM

**Q:** Next molecule: CC(C)OC(=O)CCC/C=C\C[C@@H]1[C@@H](CC[C@@H](O)CCc2ccccc2)[C@H](O)C[C@@H]1O [LATANOPROST]
**A:** > 30 µM

**Q:** Next molecule: COc1ccc2c3c1O[C@H]1[C@@H](O)C=C[C@H]4[C@@H](C2)N(C)CC[C@@]341 [CODEINE]
**A:** > 10 µM

**Q:** Next molecule: Clc1ccc(C(c2ccccc2Cl)C(Cl)Cl)cc1 (stereo not drawn) [MITOTANE]
**A:** > 10 µM

**Q:** Next molecule: CN(C)CCC=C1c2ccccc2C(C)(C)c2ccccc21
**A:** 14 µM

**Q:** Next molecule: CNS(=O)(=O)Cc1ccc2[nH]cc(CCN(C)C)c2c1
**A:** > 10 µM

**Q:** Next molecule: O=P1(NCCCl)OCCCN1CCCl (stereo not drawn) [IFOSFAMIDE]
**A:** > 30 µM

**Q:** Next molecule: C[C@H](N)[C@H](O)c1cccc(O)c1 [METARAMINOL]
**A:** > 10 µM

**Q:** Next molecule: C[C@](N)(Cc1ccc(O)c(O)c1)C(=O)O [METHYLDOPA]
**A:** > 10 µM

Cited source for all entries: ChEMBL document CHEMBL5291721
